Listed next: entries and their corresponding growth.
# Tested on: SNB-19 CNS
# Test Protocol: NCI-60 one-dose screen, 48 h (100 = growth as untreated, 0 = no growth, -100 = all killed)
# Assay Conditions: 10 µM unless noted
The panel holds about 83,000 compounds, 20% with a hit somewhere; the sample as a whole holds those more often.

Compound | growth (%)
COc1ccc(C(=O)/C=C/c2cccc([N+](=O)[O-])c2)c(OC)c1 | 17
COc1ccc(S(=O)(=O)Nc2cc(/C=C\c3cc(OC)c(OC)c(OC)c3)cc(OC)c2OC)cc1OC | 40
CN(C)C1CCC(NC2=CC(=O)C=CC2=O)CC1 (stereo unspecified) | 115
O=c1cc(C2NCCc3c2[nH]c2ccccc32)c2c(ccc3ccccc32)o1 (stereo unspecified) | 88.3
O=C(Nc1cccc(Cl)c1)c1cc([N+](=O)[O-])ccc1O | 53.3
Cc1cc(N/C=c2\sc3ncnn3c2=O)no1 | 95.2
O=S(=O)(O)CCl | 106
Nc1cc2c(cc1N)-c1cc(N)c(N)cc1C2 | 107
CCN(CC)P(=O)(N(CC)CC)N(CCCSC/C=C(\C)CC/C=C(\C)CCC=C(C)C)CCCN1CCN(C)CC1 | 92.8
Cc1ccc(S(=O)(=O)NCCCNc2nccc(-c3c(-c4ccccc4)nc4sccn34)n2)cc1 | 75.4
Cc1oc2nc[nH]c(=O)c2c1C(=O)/C=C/c1ccc(Cl)cc1 | 42
COc1ccc(-c2nc3sccn3c2-c2ccnc(NCCNS(=O)(=O)c3ccc(C(F)(F)F)cc3)n2)cc1 | 34.2
COc1cccc(/C=C/C(=O)c2sc(Nc3ccc(O)cc3)nc2C)c1 | 95.1
CCCCCCCCCCCCNC(=S)N/N=C/c1ccc(Cl)c(Cl)c1 | 114
O=C(O)c1ccc(-n2c(=O)c3ccccc3c3ccccc3c2=O)cc1 | 104
COc1ccc(-c2nnc(COc3ccc(NS(=O)(=O)c4ccc(OC)cc4)cc3F)o2)cc1 | 84
C=CC(=O)N[C@H](/C=C/C(=O)OCC)Cc1ccc(-c2cc(Cl)cc(Cl)c2)cc1 | 91.1
Cc1ccc2c(c1)ncn2-c1ncnc2c1CC(C)c1ccccc1N2C (stereo unspecified) | 37.6
Cc1ccc(Oc2nc3ccccc3cc2-c2nnc(Cn3c(COc4ccccc4)nc4ccccc43)o2)cc1 | 52.4
C=C1C(=O)O[C@H]2[C@H]1CC/C(COC(=O)NCCc1cccc(OC)c1)=C\CC[C@@]1(C)O[C@@H]21 | 56.9
COc1cc(C2CC(c3c(C)[n+]([O-])c4ccccc4[n+]3[O-])=NN2)cc(OC)c1OC (stereo unspecified) | 101
